biological target: cyclin D1/cdk 4 enzyme (Homo sapiens, UniProt P11802); construct: made in house; host or cells: Sf9 insect cells, recombinant baculovirus; assay: CDK4 ELISA kinase assay (phospho-Rb ser 795 detection); format: biochemical; conditions: In Vitro Enzyme Assay, cyclin D1/cdk 4, read-out: CDK4 IC50
Sequence (P11802 whole entry, species assumed): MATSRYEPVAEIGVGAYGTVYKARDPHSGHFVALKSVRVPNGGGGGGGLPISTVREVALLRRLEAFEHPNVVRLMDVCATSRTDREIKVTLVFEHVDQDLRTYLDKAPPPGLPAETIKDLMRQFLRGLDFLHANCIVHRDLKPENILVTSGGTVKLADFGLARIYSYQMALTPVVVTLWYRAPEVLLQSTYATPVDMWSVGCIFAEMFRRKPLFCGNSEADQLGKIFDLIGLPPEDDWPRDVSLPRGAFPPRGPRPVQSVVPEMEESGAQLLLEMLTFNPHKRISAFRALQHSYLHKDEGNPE
Sequence (P24385 whole entry partner, species assumed): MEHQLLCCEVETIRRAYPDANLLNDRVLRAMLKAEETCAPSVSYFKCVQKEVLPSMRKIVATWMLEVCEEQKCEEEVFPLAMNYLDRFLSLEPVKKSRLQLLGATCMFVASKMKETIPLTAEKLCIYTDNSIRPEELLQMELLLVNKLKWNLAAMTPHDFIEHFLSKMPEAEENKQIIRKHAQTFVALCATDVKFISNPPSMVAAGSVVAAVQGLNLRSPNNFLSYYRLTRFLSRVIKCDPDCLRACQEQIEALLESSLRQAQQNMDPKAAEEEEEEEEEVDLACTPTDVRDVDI
measured_quantity: IC50 (nM)

molecule: O=C1NC(=O)c2ccc(-c3ccc4c(c3)OCO4)cc2C1=CNCc1ccc(O)c(O)c1
unit_abbreviation: nM
IC50: 130

molecule: O=C1NC(=O)c2ccccc2C1=CNc1ccc(N2CCN(C3CCCC3)CC2)cc1
unit_abbreviation: nM
IC50: 12000

a. O=C1NC(=O)c2ccccc2C1=CNc1ccc(O)cc1
b. NS(=O)(=O)c1ccc(CNC=C2C(=O)NC(=O)c3ccc(-c4ccc(F)cc4)cc32)cc1
c. NS(=O)(=O)c1ccc(CNC=C2C(=O)NC(=O)c3ccc(-c4ccccc4Cl)cc32)cc1
Put the molecules in ascending order of IC50. Field: ranking. Enter the labels in the order requested.
b, c, a
(b: 450 nM, c: 2500 nM, a: 19300 nM)

A. CN1CCN(c2ccc(NC=C3C(=O)NC(=O)c4ccc(C=Cn5ccnc5)cc43)cc2)CC1
B. CN(Cc1ccc(NC=C2C(=O)NC(=O)c3ccccc32)cc1)C1CCCCC1
Decide: A or B , by lowest recorded IC50. // output: label of the selected item
A

a. NS(=O)(=O)c1ccc(CNC=C2C(=O)NC(=O)c3ccc(-c4ccc(C(F)(F)F)cc4)cc32)cc1
b. O=C1NC(=O)c2ccc(I)cc2/C1=C/Nc1ccc(C2CCCN2)cc1 (stereo not shown)
When a and b are compared, which has the higher number for IC50? // output: label of the selected item
a
(a: 11300 nM, b: 420 nM)
